Reported values of fold difference in affinity vs original for individual entries
target: binding partner of C5A (XPA23)
assayComment: Biacore K-off

// known answers, use as guide
binder: C5A (XPA23) VH Y32D (antibody, V domains shown) VH: EVQLLESGGGLVQPGGSLRLSCAASGFTFSKDFMFWVRQAPGKGLEWVSVISPSGGMTRYADSVKGRFTISRDNSKNTLYLQMNSLRAEDTAVYYCARVGYGGNSDYWGQGTLVTVSS VL: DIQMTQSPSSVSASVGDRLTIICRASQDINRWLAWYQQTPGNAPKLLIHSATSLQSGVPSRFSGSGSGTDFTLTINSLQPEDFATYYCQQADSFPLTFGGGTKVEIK
fold difference in affinity vs original: 0.68 fold
//
binder: C5A (XPA23) VL D92W (antibody, V domains shown) VH: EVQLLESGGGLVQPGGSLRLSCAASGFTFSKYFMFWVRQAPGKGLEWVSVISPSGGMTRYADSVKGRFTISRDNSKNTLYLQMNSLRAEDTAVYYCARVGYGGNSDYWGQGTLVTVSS VL: DIQMTQSPSSVSASVGDRLTIICRASQDINRWLAWYQQTPGNAPKLLIHSATSLQSGVPSRFSGSGSGTDFTLTINSLQPEDFATYYCQQAWSFPLTFGGGTKVEIK
fold difference in affinity vs original: 0.12 fold

Reported fold difference in affinity vs original for C5A (XPA23) VL T52F (antibody, V domains shown) VH: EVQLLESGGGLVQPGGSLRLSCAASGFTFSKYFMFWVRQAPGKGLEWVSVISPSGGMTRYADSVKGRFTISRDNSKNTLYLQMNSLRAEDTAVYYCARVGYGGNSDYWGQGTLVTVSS VL: DIQMTQSPSSVSASVGDRLTIICRASQDINRWLAWYQQTPGNAPKLLIHSAFSLQSGVPSRFSGSGSGTDFTLTINSLQPEDFATYYCQQADSFPLTFGGGTKVEIK : what is it?
1.05 fold
